Measured EC50 (nM), calcium flux, Expt II accompanies every entry in the list below.
Target: T1, human NPR1 on HEK293/hNPR1.myc.DDK cells (0 hANP) (human, UniProt P16066 33-1061)
T1 sequence: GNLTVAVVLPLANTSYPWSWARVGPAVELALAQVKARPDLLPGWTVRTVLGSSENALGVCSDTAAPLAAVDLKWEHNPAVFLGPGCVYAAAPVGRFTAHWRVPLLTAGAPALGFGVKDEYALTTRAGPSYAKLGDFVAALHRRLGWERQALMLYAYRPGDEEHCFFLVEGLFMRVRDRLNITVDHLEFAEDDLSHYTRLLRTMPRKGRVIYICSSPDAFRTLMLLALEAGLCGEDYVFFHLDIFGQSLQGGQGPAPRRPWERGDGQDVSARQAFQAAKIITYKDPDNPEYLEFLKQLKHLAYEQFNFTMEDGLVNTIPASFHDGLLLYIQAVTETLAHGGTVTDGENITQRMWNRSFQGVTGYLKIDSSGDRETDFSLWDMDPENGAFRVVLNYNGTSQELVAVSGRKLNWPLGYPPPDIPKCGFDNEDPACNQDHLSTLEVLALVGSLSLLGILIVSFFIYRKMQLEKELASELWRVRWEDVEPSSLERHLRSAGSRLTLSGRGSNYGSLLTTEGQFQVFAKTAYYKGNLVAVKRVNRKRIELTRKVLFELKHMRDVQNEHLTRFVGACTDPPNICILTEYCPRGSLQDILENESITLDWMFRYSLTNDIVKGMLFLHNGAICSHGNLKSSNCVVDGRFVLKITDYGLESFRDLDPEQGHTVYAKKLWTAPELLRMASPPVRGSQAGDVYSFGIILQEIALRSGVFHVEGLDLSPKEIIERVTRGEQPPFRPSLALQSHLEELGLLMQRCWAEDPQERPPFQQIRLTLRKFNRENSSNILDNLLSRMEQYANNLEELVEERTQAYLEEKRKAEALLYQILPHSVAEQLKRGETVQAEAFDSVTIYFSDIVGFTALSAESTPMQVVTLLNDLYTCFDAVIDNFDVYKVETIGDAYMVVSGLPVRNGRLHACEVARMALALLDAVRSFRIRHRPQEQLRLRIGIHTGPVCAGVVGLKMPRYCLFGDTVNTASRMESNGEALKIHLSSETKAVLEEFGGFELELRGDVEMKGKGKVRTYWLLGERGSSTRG
Test: cell-based or functional assay

| binder | bound.operator | EC50 (nM), calcium flux, Expt II |
| --- | --- | --- |
| mAb22035 (antibody, human IgG4, V domains shown) VH: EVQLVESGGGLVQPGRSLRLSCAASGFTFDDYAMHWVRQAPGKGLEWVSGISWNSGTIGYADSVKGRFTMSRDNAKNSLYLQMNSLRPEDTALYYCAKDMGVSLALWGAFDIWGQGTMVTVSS VL: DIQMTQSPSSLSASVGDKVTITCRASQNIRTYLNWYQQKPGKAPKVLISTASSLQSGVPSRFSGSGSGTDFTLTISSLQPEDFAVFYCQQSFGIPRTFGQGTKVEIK | > | 200 |
| mAb25491 (antibody, human IgG4, V domains shown) VH: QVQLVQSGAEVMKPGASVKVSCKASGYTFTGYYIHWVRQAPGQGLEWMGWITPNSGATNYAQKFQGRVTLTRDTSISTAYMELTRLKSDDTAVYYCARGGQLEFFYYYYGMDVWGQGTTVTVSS VL: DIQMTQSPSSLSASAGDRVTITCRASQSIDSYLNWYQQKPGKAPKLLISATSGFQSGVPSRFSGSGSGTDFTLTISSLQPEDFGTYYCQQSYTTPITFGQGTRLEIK | = | 43.4 |
| mAb22033 (antibody, human IgG4, V domains shown) VH: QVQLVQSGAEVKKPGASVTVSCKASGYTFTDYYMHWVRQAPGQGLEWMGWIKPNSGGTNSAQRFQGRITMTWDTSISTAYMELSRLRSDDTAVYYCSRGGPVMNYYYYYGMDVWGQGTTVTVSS VL: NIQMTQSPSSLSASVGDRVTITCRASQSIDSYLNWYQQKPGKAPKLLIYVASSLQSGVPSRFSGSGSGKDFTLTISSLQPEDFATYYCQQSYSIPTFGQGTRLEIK | = | 41.6 |
| mAb22810 (antibody, human IgG4, V domains shown) VH: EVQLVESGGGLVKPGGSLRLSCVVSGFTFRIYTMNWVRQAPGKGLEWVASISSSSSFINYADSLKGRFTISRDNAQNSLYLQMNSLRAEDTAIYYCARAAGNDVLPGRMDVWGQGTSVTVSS VL: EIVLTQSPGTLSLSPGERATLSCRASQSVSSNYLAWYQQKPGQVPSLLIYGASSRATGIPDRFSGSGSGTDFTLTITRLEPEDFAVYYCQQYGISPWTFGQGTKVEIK | = | 50.8 |

Just for reference, patent US20240309103A1 is where these values come from.
